Numbers sourced from paper PMC6387968.

Catalogue of microsomal CLint at 0.1 M readings, one per entry.
assay: in vitro; type: in vitro ADME; conditions: human, microsomes
Measurement Label: microsomal CLint at 0.1 M (µL/min/mg)

INSERT INTO assay_data (compound, scale_unit, test_result) VALUES
  ('CCCCCCCCCCOc1cc2c(=O)c(C(=O)NCCOCCO)cn(CC)c2cc1OCC [RMB041]', 'µL/min/mg', 16),
  ('CCCCCCCCCCOc1cc2c(=O)c(C(=O)NCCNCCO)cn(CC)c2cc1OCC [RMB043]', 'µL/min/mg', 83),
  ('CCCCCCCCCCOc1cc2c(=O)c(C(=O)NCCOCCO)cn(CCO)c2cc1OCC [RMB073]', 'µL/min/mg', 7.78);

====

Catalogue of microsomal CLint at 0.1 M readings, one per entry.
assay: in vitro; format: in vitro ADME; conditions: mouse, microsomes
Measurement Label: microsomal CLint at 0.1 M (µL/min/mg)

INSERT INTO measurements (item_smiles, test_result) VALUES
  ('CCCCCCCCCCOc1cc2c(=O)c(C(=O)NCCOCCO)cn(CCO)c2cc1OCC', 15),
  ('CCCCCCCCCCOc1cc2c(=O)c(C(=O)NCCNCCO)cn(CC)c2cc1OCC', 109),
  ('CCCCCCCCCCOc1cc2c(=O)c(C(=O)NCCOCCO)cn(CC)c2cc1OCC', 26.8);

====

Catalogue of fraction unbound at 4 h, 1 μg/mL readings, one per entry.
assay: in vitro; type: in vitro ADME; conditions: microsomes
Measurement Label: fraction unbound at 4 h, 1 μg/mL

INSERT INTO measurements (item_smiles, measurement_label, test_result) VALUES
  ('CCCCCCCCCCOc1cc2c(=O)c(C(=O)NCCNCCO)cn(CC)c2cc1OCC', 'fraction unbound at 4 h, 1 μg/mL', 0.06),
  ('CCCCCCCCCCOc1cc2c(=O)c(C(=O)NCCOCCO)cn(CCO)c2cc1OCC', 'fraction unbound at 4 h, 1 μg/mL', 0.11),
  ('CCCCCCCCCCOc1cc2c(=O)c(C(=O)NCCOCCO)cn(CC)c2cc1OCC', 'fraction unbound at 4 h, 1 μg/mL', 0.06);

====

experiment: in vitro; format: in vitro ADME; conditions: mouse, microsomes
Catalogue of half-life at 0.1 M readings, one per entry.
Measurement Label: half-life at 0.1 M

INSERT INTO measurements (item_smiles, test_result) VALUES
  ('CCCCCCCCCCOc1cc2c(=O)c(C(=O)NCCOCCO)cn(CC)c2cc1OCC', '> 2.5 h'),
  ('CCCCCCCCCCOc1cc2c(=O)c(C(=O)NCCOCCO)cn(CCO)c2cc1OCC', '> 2.5 h'),
  ('CCCCCCCCCCOc1cc2c(=O)c(C(=O)NCCNCCO)cn(CC)c2cc1OCC', '1 h');

====

assay: in vitro; type: in vitro ADME; settings: microsomes
Measurement Label: half-life at 0.1 M

INSERT INTO results (item_smiles, test_result) VALUES
  ('CCCCCCCCCCOc1cc2c(=O)c(C(=O)NCCNCCO)cn(CC)c2cc1OCC', '< 100 min'),
  ('CCCCCCCCCCOc1cc2c(=O)c(C(=O)NCCOCCO)cn(CC)c2cc1OCC', '> 150 min'),
  ('CCCCCCCCCCOc1cc2c(=O)c(C(=O)NCCOCCO)cn(CCO)c2cc1OCC', '> 150 min');
